Test system: RSV strain A2
Assay overview: standard plaque reduction assay for anti-RSV activity
Assay setup: calculated selectivity index, HEp-2 cells
Threshold-based label: SI (CC50/IC50) under 700 gives Fulfilled, SI (CC50/IC50) not under 700 gives Not fulfilled.

Please state whether SI (CC50/IC50) is below 700 for Cc1cc(NCc2ccncc2)c2nc(C)c(-c3ccc4c(c3)c(C)nn4C)n2n1 Fulfilled

Problem: For the molecule COc1ccc(-c2c(C)nn3c(NCc4cccc(S(C)(=O)=O)c4)cc(C)nc23)cc1OC , is SI (CC50/IC50) under 700? Not fulfilled

Given Cc1cc(NCc2ccncc2)n2nc(C)c(-c3ccc4c(c3)c(C)nn4C)c2n1 , is recorded SI (CC50/IC50) strictly lower than 700? Not fulfilled

Below 700 on SI (CC50/IC50)? Entry COc1ccc(-c2c(C)nc3c(NCc4ccncc4)cc(C)nn23)cc1OC Not fulfilled

Decide: SI (CC50/IC50) of CCc1cc(CNc2cc(C)nc3c(-c4ccc5c(c4)c(C)nn5C)c(C)nn23)ccn1 strictly below 700? Not fulfilled

Quick check: does COc1ccc(-c2c(C)nn3c(NCc4ccc(S(N)(=O)=O)cc4)nc(C)nc23)cc1OC have SI (CC50/IC50) under 700? Not fulfilled

Hello, I'm reviewing records and need to know if SI (CC50/IC50) of COc1ccc(-c2c(C)nn3c(NCc4ccc(C)nc4)cc(C)nc23)cc1OC is below 700. Could you check? Fulfilled

Is the reported SI (CC50/IC50) for COc1ccc(-c2c(C)nn3c(NCc4ccncc4)nc(C)nc23)cc1OC strictly below 700? Fulfilled

Determine if Cc1cc(CCCOc2c(C)cc(-c3noc(C(F)(F)F)n3)cc2C)on1 [Pleconaril, reference compound] shows SI (CC50/IC50) strictly lower than 700. Fulfilled

SI (CC50/IC50) under 700? Item: Cc1cc(CNc2cc(C)nc3c(-c4ccc5c(c4)c(C)nn5C)c(C)nn23)ccn1 Fulfilled

---

Assay overview: cell viability assay using tetrazolium salt (MTS)
Assay setup: human, HEp-2 cells
Endpoint name: CC50

Find the recorded CC50 belonging to COc1ccc(-c2c(C)nn3c(NCc4ccc(C)nc4)cc(C)nc23)cc1OC [Example 29] and report it. 60 µM
